system: U2OS; assay: Multiplex assay against U2OS; type: toxicity, cell-based; conditions: human, 12 h, 10 µM, compound concentration 10 uM
Task for the reader: assign each of the following compounds its reported Population Hoechst High Intensity Objects (%).
// units = %; emit number, no label

## Task What does the record list as Population Hoechst High Intensity Objects (%) for Cl.N=C(N)NC(=O)Cc1c(Cl)cccc1Cl [GUANFACINE HYDROCHLORIDE] ?
## Result 1

## Task What does the record list as Population Hoechst High Intensity Objects (%) for CCCCCN1C(=O)C2(COc3cc4c(cc32)OCO4)c2ccccc21 (stereo not given) ?
## Result 0

## Task What does the record list as Population Hoechst High Intensity Objects (%) for Cc1c(C(=O)NCCCN(C)C)sc2ncnc(Nc3ccc(F)cc3OC(C)CF)c12 (stereo not given) ?
## Result 0

## Task What does the record list as Population Hoechst High Intensity Objects (%) for Cc1cc(C(C#N)c2ccc(Cl)cc2)c(Cl)cc1NC(=O)c1cc(I)cc(I)c1O (stereo not given) ?
## Result 0

## Task What does the record list as Population Hoechst High Intensity Objects (%) for `Cc1cnc(-c2cc(N3CCN(C(=O)CCS(C)(=O)=O)CC3)ncc2Cl)c(C)c1` ?
## Result 1

## Task What does the record list as Population Hoechst High Intensity Objects (%) for CC(N)C1CCC(C(=O)Nc2ccncc2)CC1 (stereo not given) ?
## Result 0

## Task What does the record list as Population Hoechst High Intensity Objects (%) for `CC(C)[C@H](C(=O)Nc1ccc(C(=O)NO)cc1)c1ccccc1` ?
## Result 0

## Task What does the record list as Population Hoechst High Intensity Objects (%) for `COc1cc(N2CCN(C)CC2)ccc1Nc1nccc(-c2cn(C)c3cnccc23)n1` ?
## Result 0

## Task What does the record list as Population Hoechst High Intensity Objects (%) for `CC(C)(C)c1cc(C(C)(C)C)c(NC(=O)c2c[nH]c3ccccc3c2=O)cc1O` ?
## Result 0

## Task What does the record list as Population Hoechst High Intensity Objects (%) for `CCc1cc2cc(NS(=O)(=O)c3ccc(C#N)cc3)ccc2n(CC)c1=O` ?
## Result 2

## Task What does the record list as Population Hoechst High Intensity Objects (%) for `NC1=NC(=O)/C(=C2\CCNC(=O)c3[nH]c4ccccc4c32)N1` ?
## Result 0

## Task What does the record list as Population Hoechst High Intensity Objects (%) for `CCC(=N\O)/C(C)=C/c1ccc(F)cc1` ?
## Result 0

## Task What does the record list as Population Hoechst High Intensity Objects (%) for CCn1c(-c2nonc2N)nc2c(C#CC(C)(C)O)ncc(OCC3CCCNC3)c21 (stereo not given) ?
## Result 0

## Task What does the record list as Population Hoechst High Intensity Objects (%) for `O=C(O)C(F)(F)F.O=C1NC(=O)/C(=C/c2c[nH]c(=O)c(-c3ccc(N4CCNCC4)nc3)c2)S1` ?
## Result 0

## Task What does the record list as Population Hoechst High Intensity Objects (%) for `CN1CC[C@@]23CCCC[C@@H]2[C@@H]1Cc1ccc(O)cc13.O=C(O)C(O)C(O)C(=O)O` ?
## Result 0

## Task What does the record list as Population Hoechst High Intensity Objects (%) for `CCOC(=O)c1c(/C(C#N)=C\N)c2ccc(Cl)c(Cl)c2n1C` ?
## Result 0

## Task What does the record list as Population Hoechst High Intensity Objects (%) for `C[C@H](NC(=O)c1c(C(F)F)nn(C)c1Oc1cccc(C(F)(F)F)c1)c1ccc(C(=O)O)cc1` ?
## Result 3

## Task What does the record list as Population Hoechst High Intensity Objects (%) for `CC(C)(c1ccc(O)cc1)c1ccc(O)cc1` ?
## Result 0

## Task What does the record list as Population Hoechst High Intensity Objects (%) for `CC[C@@H](C)Nc1nc(C)nc2c(-c3ccc(OC)nc3C)c(C)nn12` ?
## Result 1

## Task What does the record list as Population Hoechst High Intensity Objects (%) for `Cc1c(-c2cc(-c3ccccc3Cl)no2)cnn1C1CCNCC1.Cl` ?
## Result 0

These data points were gathered from ChEMBL document CHEMBL5724801.
